Just for reference, ChEMBL document CHEMBL5052853 is where these values come from.

System: JIMT-1
protocol_notes: Antiproliferative activity against human JIMT-1 cells after 72 hrs by SRB assay
Type: functional, cell-based
condition_summary: JIMT-1, 72 h
quantity_kind: IC50

I am curious: what IC50 value has been reported for `COc1ccc(-c2cc(Nc3ccnc(N4CCN(CCO)CC4)n3)on2)cc1` ?
> 10 µM

Which IC50 reading was recorded for the compound `CC(F)(F)c1ccc(-c2cc(Nc3ccnc(N4CCOCC4)n3)on2)cc1` ?
> 10 µM

I have this compound here, `c1ccc(-c2cc(Nc3ccnc(N4CCOCC4)n3)on2)cc1` , and I need its recorded IC50.
> 10 µM

Consider the compound shown here: `COc1ccc(-c2cc(Nc3ccnc(N4CCC(CCO)CC4)n3)on2)cc1` What is its recorded IC50?
3.97 µM

Give its IC50 value. Item: `COc1ccc(-c2cc(Nc3cc(C)nc(N4CCC(F)CC4)n3)on2)cc1`
1 µM

Which IC50 is reported for this compound? `Clc1ccc(-c2cc(Nc3ccnc(N4CCOCC4)n3)on2)cc1`
> 10 µM

State the recorded IC50 for this entry: `Fc1ccc(-c2cc(Nc3ccnc(N4CCOCC4)n3)on2)cc1`
> 10 µM

// IC50 lookup, key: `COc1ccc(-c2cc(Nc3ccnc(N4CCC(C(F)(F)F)CC4)n3)on2)cc1`
0.056 µM
